For reference, pIC50 measured on Interstitial collagenase (Homo sapiens, UniProt P03956):
# reply with the number alone; pIC50 is -log10 of concentration in mol/L

Query: # query: pIC50 of entry COc1ccc(S(=O)(=O)N2CCN(C(=O)[C@@H](O)C(C)C)CC2C(=O)NO)cc1 (stereo not given in full)
Response: 6.64

Query: # query: pIC50 of entry COc1ccc(S(=O)(=O)N2CCN(C(=O)NCCc3ccccc3)CC2C(=O)NO)cc1 (stereo not given)
Response: 7.15

Query: # query: pIC50 of entry COc1ccc(S(=O)(=O)N2CCN(C(=O)N(C)Cc3ccccc3)CC2C(=O)NO)cc1 (stereo not given)
Response: 6.49

Query: # query: pIC50 of entry COc1ccc(S(=O)(=O)N2CCN(C(N)=O)CC2C(=O)NO)cc1 (stereo not given)
Response: 6.94

Query: # query: pIC50 of entry COc1ccc(S(=O)(=O)N2CCN(C(=O)OCc3cccnc3)CC2C(=O)NO)cc1 (stereo not given)
Response: 7.74

Query: # query: pIC50 of entry CCCCCCN(C)C(=O)N1CCN(S(=O)(=O)c2ccc(OC)cc2)C(C(=O)NO)C1 (stereo not given)
Response: 7.15

Query: # query: pIC50 of entry COc1ccc(S(=O)(=O)N2CCN(C(=S)NCc3ccccc3)CC2C(=O)NO)cc1 (stereo not given)
Response: 7.17

Query: # query: pIC50 of entry COc1ccc(S(=O)(=O)N2CCN(C(C)=O)CC2C(=O)NO)cc1 (stereo not given)
Response: 7.14

Query: # query: pIC50 of entry COc1ccc(S(=O)(=O)N2CCN(C(=O)C3CCCCC3)CC2C(=O)NO)cc1 (stereo not given)
Response: 6.66

Query: # query: pIC50 of entry COc1ccc(S(=O)(=O)N2CCN(C(=O)N3CCOCC3)CC2C(=O)NO)cc1 (stereo not given)
Response: 6.64
